GI50 by entry:
Test system: UACC-257
Experiment: NCI tumour cell line growth inhibition, 48 h
Calls of active or inactive are those of the source. Cut-off read from the data, not from the text of the source: active = GI50 up to about 1.1 µM and inactive = higher.

Below, each entry is followed by its recorded GI50 result.
INSERT INTO results (molecule, reading) VALUES
  ('N/N=C(\c1nc2ccc(Cl)cc2nc1O)C(O)c1ccc(Cl)c(Cl)c1 (stereo not given)', '> 100 µM (inactive)'),
  ('CC(=O)O[C@@H]1O[Si](C(C)(C)C)(C(C)(C)C)[C@H](C)[C@H]1C', '> 100 µM (inactive)'),
  ('CC(=O)OCc1ccc(O)c(C=O)c1', '> 100 µM (inactive)'),
  ('CCOC(=O)c1csc(NC(=O)CCN(CC)CC)n1', '28.1 µM (inactive)'),
  ('NC(=O)c1nnn(Cc2cc(Cl)c(C(=O)c3ccc(Cl)cc3)c(Cl)c2)c1N', '7.98 µM (inactive)');

Moving on to the next molecule.
# input Please give the documented GI50 of CC1=NN(C(=O)c2ccc(Cl)cc2)C(=O)/C1=C/c1cccc(O)c1
# output > 100 µM (inactive)

###

Test system: SF-268
Experiment: NCI tumour cell line growth inhibition, 48 h
The source made the active and inactive calls. Cut-off read from the data, not from the text of the source: active = GI50 up to about 1.1 µM and inactive = higher.
recorded.metric: GI50

INSERT INTO results (compound, reading) VALUES
  ('Cc1[nH]c(=O)[nH]c(=O)c1N(CCF)CCCl', '290 µM (inactive)'),
  ('N/C(CCSCCSCC/C(N)=N\O)=N\O', '> 100 µM (inactive)'),
  ('CC1N[B@@-](C)(c2ccc(C(F)(F)F)cc2)OC1c1ccccc1 (stereo partly specified)', '> 100 µM (inactive)');

# input Please give the documented GI50 of c1cc(NC2=NCCO2)c2c(c1)OCO2
# output > 100 µM (inactive)

# input Please give the documented GI50 of COc1ccc(C(c2ccc(C(C)C)cc(OC)c2=O)c2ccc(C(C)C)cc(OC)c2=O)cc1
# output 13.6 µM (inactive)

# input Please give the documented GI50 of O=C1c2ccccc2C(=O)c2c(/C=C\N3CCCCC3)ccnc21
# output 12 µM (inactive)

# input Please give the documented GI50 of NCC(=O)Nc1ccc(Cl)cc1C(=O)c1ccc[nH]1
# output 49 µM (inactive)

# input Please give the documented GI50 of CCOC(=O)Nc1[nH]cc(-c2ccccc2)c1C#N
# output > 100 µM (inactive)

###

System: SK-OV-3
Experiment: NCI tumour cell line growth inhibition, 48 h
Activity calls are given as the source filed them. Rule as the data show it: active = GI50 up to about 1.1 µM and inactive = higher.
GI50 by entry:

Below, each entry is followed by its recorded GI50 result.
INSERT INTO assay_data (compound, reading) VALUES
  ('CCN(CC)/[N+]([O-])=N/OCOC(C)=O', '> 100 µM (inactive)'),
  ('CCCCc1ccc(N2C(=O)c3cccnc3S2(=O)=O)cc1', '> 100 µM (inactive)'),
  ('O=C1[C@@H]2Cc3c([nH]c4ccccc34)C(C3CCCCC3)N2C(=O)[C@@H]2CCCN12 (some centres undefined)', '46.9 µM (inactive)'),
  ('Cc1cccc(/N=C/c2ccc(N(CCC#N)S(=O)(=O)c3ccccc3)cc2C)c1', '> 100 µM (inactive)'),
  ('CCN(CC)C(=O)N1CN(c2ccccc2)C2(CCN(CCCSc3ccc(F)cc3)CC2)C1=O', '19 µM (inactive)'),
  ('CCOC(=O)c1csc(NC(=O)CCN(CC)CC)n1', '> 100 µM (inactive)');

# input Please give the documented GI50 of CC(=O)[C@@H]1[C@@H](OC(=O)CCC(C)COC2OC(CO)C(O)C(O)C2O)C[C@H]2[C@@H]3CC=C4C[C@@H](OC5OC(CO)C(OC6OC(C)C(O)C(O)C6O)C(O)C5OC5OC(C)C(O)C(O)C5O)CC[C@]4(C)[C@H]3CC[C@]12C (some centres undefined)
# output > 100 µM (inactive)

# input Please give the documented GI50 of N#CCCC1(CCC#N)CCCCCCCCC(CCC#N)(CCC#N)C(=O)C1=O
# output > 100 µM (inactive)

# input Please give the documented GI50 of COc1ccc(C2c3cc4c(cc3OC(NNS(=O)(=O)c3ccc(C)cc3)C2C)OCO4)cc1 (centres undefined)
# output > 100 µM (inactive)

###

System: T47D
Assay: NCI tumour cell line growth inhibition, 48 h
The source made the active and inactive calls. Rule as the data show it: active = GI50 up to about 1.1 µM and inactive = higher.
Outcomes you can answer with include only these: active, inactive

INSERT INTO results (structure, assayed_target, label_value) VALUES
  ('O=C(/C=C1\N=C(c2ccccc2)N(c2nc3ccc(Sc4ccccc4)cc3[nH]2)C1=O)/C=C/c1ccccc1', 'T47D', 'inactive'),
  ('O=[N+]([O-])/C=C\c1c[nH]c2ccc(OCc3ccccc3)cc12', 'T47D', 'inactive'),
  ('CCNC(=S)NNC(=O)C12CC3CC(CC(C3)C1)C2', 'T47D', 'inactive'),
  ('CC(C)NC(=O)OCc1c(COC(=O)NC(C)C)c(-c2ccc[n+](COC(=O)C3CC3)c2)n2c1CCC2', 'T47D', 'inactive'),
  ('NS(=O)(=O)c1ccc(/N=N/c2cnc(O)c(O)c2)cc1', 'T47D', 'inactive'),
  ('CCN(CC)C(=O)N1CN(c2ccccc2)C2(CCN(CCCSc3ccc(F)cc3)CC2)C1=O', 'T47D', 'inactive'),
  ('O=C(CNc1ccc(Cl)cc1)Nn1c(-c2ccccc2)nc2ccccc2c1=O', 'T47D', 'inactive');

Please find the next molecule below.
# input Which outcome was entered for the molecule CC[C@@]1(O)C(=O)OCc2c1cc1n(c2=O)Cc2c-1nc1ccccc1c2/C=N\c1ccc(N[C@@H]2c3cc4c(cc3[C@@H](c3cc(OC)c(O)c(OC)c3)[C@H]3C(=O)OC[C@@H]32)OCO4)cc1 in this test?
# output active

###

Tested on: CCRF-CEM
Assay: NCI tumour cell line growth inhibition, 48 h
Calls of active or inactive are those of the source. No stated cut-off is given here; in the data, active = GI50 up to about 1.1 µM and inactive = higher.
recorded.metric: GI50

Below, each entry is followed by its recorded GI50 result.
INSERT INTO results (compound, recorded_metric, reading) VALUES
  ('c1ccc2c3c([nH]c2c1)[C@H]1C2CCCCN2CN1CC3 (stereo not given in full)', 'GI50', '> 100 µM (inactive)'),
  ('NC(=O)c1nnn(Cc2cc(Cl)c(C(=O)c3ccc(Cl)cc3)c(Cl)c2)c1N', 'GI50', '31 µM (inactive)'),
  ('O=C1CS/C(=N/N=C/c2cn(Cc3ccc(Cl)cc3Cl)c3ccccc23)N1', 'GI50', '15.8 µM (inactive)'),
  ('Cc1ccc2nc(-c3ccc(-n4c(C)nc(=O)c(-c5ccc(F)cc5)c4C)cc3)sc2c1', 'GI50', '13 µM (inactive)');

Moving on to the next compound.
# input Please give the documented GI50 of O=[N+]([O-])/C(Cl)=C(/C(Cl)=C(Cl)Cl)N1CCCCC1
# output 4.73 µM (inactive)

###

Test system: NCI-H23
Assay: NCI tumour cell line growth inhibition, 48 h
Calls of active or inactive are those of the source. Cut-off read from the data, not from the text of the source: active = GI50 up to about 1.1 µM and inactive = higher.
Outcomes you can answer with include only these: active, inactive

INSERT INTO measurements (compound, label_value) VALUES
  ('CCN(CC)CCOC(c1ccccc1)c1ccccc1.CCOC(=O)Nc1ccc(S(=O)(=O)NCCCl)cc1.CCOC(=O)Nc1ccc(S(=O)(=O)NCCCl)cc1.Nc1ccc(C(=O)O)c(O)c1', 'inactive'),
  ('CCNC1(c2cccc(C)c2)OC(C)(C)c2cccc3cccc1c23 (stereo not given)', 'inactive'),
  ('C/C=C1\CN2CCc3c([nH]c4ccccc34)C2CC1C(=O)OC (stereo not given)', 'inactive'),
  ('O=c1[nH]c2c(S)nc(O)nc2n1-c1ccccc1', 'inactive'),
  ('O=C(CNc1ccc(Cl)cc1)Nn1c(-c2ccccc2)nc2ccccc2c1=O', 'inactive');

# input Which outcome was entered for the compound CC(C)(C)CN1[C@@H]2CCCC[C@H]2N(CC(C)(C)C)P1(=O)Cc1ccccc1 in this test?
# output inactive

# input Which outcome was entered for the compound Cc1cccc2c(=O)c3cccc([C@@H](C)C(=O)O)c3oc12 in this test?
# output inactive

###

System: M14
Test: NCI tumour cell line growth inhibition, 48 h
Activity calls are given as the source filed them. No stated cut-off is given here; in the data, active = GI50 up to about 1.1 µM and inactive = higher.
Outcomes you can answer with include only these: active, inactive

For orientation, consider the following solved cases.
INSERT INTO assay_data (molecule, assayed_target, label_value) VALUES
  ('Cc1ccc(NCCN(C)C)c2c(=O)c3cc(O)ccc3oc12', 'M14', 'inactive'),
  ('CC[C@@]1(OC(=O)C(N)CCCCN)C(=O)OCc2c1cc1n(c2=O)Cc2cc3ccccc3nc2-1 (stereo partly drawn)', 'M14', 'active'),
  ('NC(=O)C(c1ccccc1)N1OC2C(=O)N(Cc3ccccc3)C(=O)C2C1c1cccc(Oc2ccc(Cl)cc2)c1 (stereo not drawn)', 'M14', 'inactive');

# input Which outcome was entered for the molecule C/N=c1/ssc(=S)n1C(C)C in this test?
# output inactive

# input Which outcome was entered for the molecule CCCCCCc1cc2c(C)c(C)c(=O)oc2cc1OCCCOc1cc2oc(=O)c(C)c(C)c2cc1CCCCCC in this test?
# output inactive

# input Which outcome was entered for the molecule CCCCc1ccc(N2C(=O)c3cccnc3S2(=O)=O)cc1 in this test?
# output inactive
